# note: boundary value 200 °C maps to Condition not met; melting point below it maps to Condition met

Some solved cases for reference:
>  <smi>
Cc1cc(NC(=O)c2cnn3c2C(=O)N(c2ccc(C(F)(F)F)cn2)C[C@@H]3C)ccn1

>  <qualitative label>
Condition not met

$$$$
>  <smi>
Cc1cc(N2C[C@H](C)n3ncc(C(=O)Nc4ccccn4)c3C2=O)ccc1C(F)(F)F

>  <qualitative label>
Condition not met

$$$$
>  <smi>
C[C@H]1CN(c2ccc(C(F)(F)F)cc2)C(=O)c2c(C(=O)NCC3CCCC3)cnn21

>  <qualitative label>
Condition met

$$$$

API: query returns whether the compound falls strictly under 200 °C in melting point. Query: Cc1ncc(NC(=O)c2cnn3c2C(=O)N(c2ccc(C(F)(F)F)cc2)C[C@@H]3C)cn1
Condition not met

is_below(melting point, 200 °C) for Cc1cncc(NC(=O)c2cnn3c2C(=O)N(c2ccc(C(F)(F)F)c(F)c2)C[C@@H]3C)c1 ?
Condition not met

is_below(melting point, 200 °C) for Cc1cc(NC(=O)c2cnn3c2C(=O)N(c2ccc(C(F)(F)F)c(C)c2)C[C@@H]3C)ccn1 ?
Condition met

====

experimental system: human mGlu2 receptor (Homo sapiens, UniProt Q14416)
Sequence (Q14416 19-872): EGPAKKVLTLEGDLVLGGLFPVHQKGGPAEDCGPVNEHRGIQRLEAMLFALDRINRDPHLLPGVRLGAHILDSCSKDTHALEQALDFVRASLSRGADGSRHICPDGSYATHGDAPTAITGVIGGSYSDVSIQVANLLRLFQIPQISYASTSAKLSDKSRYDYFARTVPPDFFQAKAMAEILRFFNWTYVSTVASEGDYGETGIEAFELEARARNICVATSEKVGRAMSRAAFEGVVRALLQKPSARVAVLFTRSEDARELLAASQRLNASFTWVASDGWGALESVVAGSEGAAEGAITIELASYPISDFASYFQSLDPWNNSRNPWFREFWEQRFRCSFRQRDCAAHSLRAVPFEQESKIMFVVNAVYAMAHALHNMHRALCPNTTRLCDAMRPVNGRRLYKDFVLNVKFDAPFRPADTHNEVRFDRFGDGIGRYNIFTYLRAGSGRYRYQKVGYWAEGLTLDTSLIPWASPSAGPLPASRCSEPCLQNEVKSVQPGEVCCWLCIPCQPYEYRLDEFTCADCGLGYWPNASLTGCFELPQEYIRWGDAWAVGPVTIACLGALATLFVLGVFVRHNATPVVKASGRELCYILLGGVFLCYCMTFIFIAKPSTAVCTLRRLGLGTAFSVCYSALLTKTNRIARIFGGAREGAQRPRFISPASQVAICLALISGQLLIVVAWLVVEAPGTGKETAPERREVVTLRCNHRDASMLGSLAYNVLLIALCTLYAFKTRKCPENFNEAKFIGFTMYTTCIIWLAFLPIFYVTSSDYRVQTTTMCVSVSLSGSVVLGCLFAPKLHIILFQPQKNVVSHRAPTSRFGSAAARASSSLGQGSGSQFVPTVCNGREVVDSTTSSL
test protocol: [35S]GTPγS binding assay, mGluR2 negative allosteric modulation (membranes from CHO cells transfected with human mGlu2 receptor, glutamate ~EC80 60 μM)
measurement conditions: GTPγS - hmGluR2 anGT pIC50, membranes with human mGlu2 receptor, glutamate ~EC80 (60 μM); pIC50 = -log IC50 (M)
observed property: log10 of IC50 (log10 of the value in M)
Use the decimal logarithm of IC50 (M).

Consider the following illustrative entries.
>  <smi>
Cc1c(F)cncc1NC(=O)c1cnn2c1C(=O)N(c1ccc(C(F)(F)F)c(F)c1)C[C@@H]2C

>  <experimental system>
human mGlu2 receptor (Homo sapiens, UniProt Q14416)

>  <log10 of IC50>
-8.53

$$$$
>  <smi>
C[C@H]1CN(c2ccc(C(F)(F)F)c(F)c2)C(=O)c2c(C(=O)Nc3cnccn3)cnn21

>  <experimental system>
human mGlu2 receptor (Homo sapiens, UniProt Q14416)

>  <log10 of IC50>
-8.50

$$$$
>  <smi>
Cc1cc(N2C[C@H](C)n3ncc(C(=O)Nc4ccccn4)c3C2=O)ccc1C(F)(F)F

>  <experimental system>
human mGlu2 receptor (Homo sapiens, UniProt Q14416)

>  <log10 of IC50>
-8.40

$$$$
>  <smi>
COc1cnccc1NC(=O)c1cnn2c1C(=O)N(c1ccc(C(F)(F)F)cc1)C[C@@H]2C

>  <experimental system>
human mGlu2 receptor (Homo sapiens, UniProt Q14416)

>  <log10 of IC50>
-7.86

$$$$
>  <smi>
Cc1cc(NC(=O)c2cnn3c2C(=O)N(c2ccc(C(F)(F)F)c(Cl)c2)C[C@@H]3C)cc(C)n1

>  <experimental system>
human mGlu2 receptor (Homo sapiens, UniProt Q14416)

>  <log10 of IC50>
-8.83

$$$$
>  <smi>
C[C@H]1CN(c2ccc(C(F)(F)F)cc2)C(=O)c2c(C(=O)NCC3CCCC3)cnn21

>  <experimental system>
human mGlu2 receptor (Homo sapiens, UniProt Q14416)

>  <log10 of IC50>
-7.45

$$$$

API: the following record is the query input.
Notebook entry, human mGlu2 receptor (Homo sapiens, UniProt Q14416) assay: log10 of IC50 of C[C@H]1CN(c2ccc(C(F)(F)F)cc2)C(=O)c2c(C(=O)Nc3ncccc3F)cnn21 = ?
-7.32

====

experimental system: human mGlu2 receptor (Homo sapiens, UniProt Q14416)
test protocol: [35S]GTPγS binding assay, mGluR2 negative allosteric modulation (membranes from CHO cells transfected with human mGlu2 receptor, glutamate ~EC80 60 μM);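 further: membranes preincubated 30 min at 30 °C with compound plus glutamate, then [35S]GTPγS (0.1 nM) incorporation measured over another 30 min at 30 °C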
measurement conditions: GTPγS - hmGluR2 anGT pIC50, membranes with human mGlu2 receptor, glutamate ~EC80 (60 μM); pIC50 = -log IC50 (M)
observed property: IC50 (M)
Express your answer in M, writing the number without its unit.

Worked set:
>  <compound>
CC(=O)NC(=O)c1cnn2c1C(=O)N(c1ccc(C(F)(F)F)cc1)C[C@@H]2C [compound 138]

>  <observed measurement>
1.66e-07

$$$$
>  <compound>
COc1cncc(NC(=O)c2cnn3c2C(=O)N(c2ccc(C(F)(F)F)c(Cl)c2)C[C@@H]3C)c1C [compound 127]

>  <observed measurement>
4.07e-09

$$$$
>  <compound>
COc1cncc(NC(=O)c2cnn3c2C(=O)N(c2ccc(C(F)(F)F)c(OC)c2)C[C@@H]3C)c1 [compound 34]

>  <observed measurement>
1.05e-08

$$$$

Next up:
Any idea what its IC50 is? The compound is COc1cccc(NC(=O)c2cnn3c2C(=O)N(c2ccc(C(F)(F)F)c(OC)n2)C[C@@H]3C)c1 [compound 119]
7.76e-09

====

Below, each entry is listed alongside its reported IC50.
experimental system: human mGlu2 receptor (Homo sapiens)
test protocol: [35S]GTPγS binding assay, mGluR2 negative allosteric modulation (membranes from CHO cells transfected with human mGlu2 receptor, glutamate ~EC80 60 μM)
measurement conditions: GTPγS - hmGluR2 anGT pIC50, membranes with human mGlu2 receptor, glutamate ~EC80 (60 μM); pIC50 = -log IC50 (M)
All answers are understood in M, so give the number only.

Here is how some molecules turned out for IC50.
>  <molecule>
C[C@H]1CN(c2ccc(C(F)(F)F)c(Cl)c2)C(=O)c2c(C(=O)Nc3ccc(F)cn3)cnn21

>  <IC50 (M)>
2.82e-09

$$$$
>  <molecule>
C[C@H]1CN(c2ccc(C(F)(F)F)cc2)C(=O)c2c(C(=O)NC(=O)C3CCC3)cnn21

>  <IC50 (M)>
4.07e-08

$$$$
>  <molecule>
COc1cc(N2C[C@H](C)n3ncc(C(=O)Nc4cnccc4C)c3C2=O)ccc1C(F)(F)F

>  <IC50 (M)>
3.47e-09

$$$$

Fill blank: measured IC50 of the molecule Cc1cc(N2C[C@H](C)n3ncc(C(=O)Nc4cccnc4)c3C2=O)ccc1C(F)(F)F is ____.
8.51e-10

I'd like to know its IC50. The molecule in question is Cc1cc(NC(=O)c2cnn3c2C(=O)N(c2ccccc2)C[C@@H]3C)ccn1
1.48e-07

Bench note: what IC50 did C[C@H]1CN(c2ccc(OC(F)(F)F)c(Cl)c2)C(=O)c2c(C(=O)Nc3cccnc3)cnn21 show?
1.05e-09

Entry C[C@H]1CN(c2ccc(C(F)(F)F)cc2)C(=O)c2c(C(=O)Nc3cncc(F)c3)cnn21 [compound 13] has what IC50?
2.24e-09

Quick one: IC50 of C[C@H]1CN(c2ccc(C(F)(F)F)cc2)C(=O)c2c(C(=O)NCC3CCOCC3)cnn21 ?
8.13e-07

Need IC50 of C[C@H]1CN(c2ccc(Cl)c(Cl)c2)C(=O)c2c(C(=O)Nc3cncc(F)n3)cnn21 , thanks.
9.55e-10

Can you look up the measured IC50 of C[C@H]1CN(c2ccc(C(F)(F)F)cc2)C(=O)c2c(C(=O)NC=O)cnn21 for me?
6.31e-08

Request the reported IC50 associated with COCC1CN(c2ccc(C(F)(F)F)c(Cl)c2)C(=O)c2c(C(=O)Nc3cccnc3)cnn21 (stereo not shown) [compound 164]
1.91e-09

Recorded IC50 of C[C@H]1CN(c2ccc(C(F)(F)F)cc2)C(=O)c2c(C(=O)Nc3ncco3)cnn21 , please.
2.57e-08

Requested read-out: IC50. Entry: Cc1ccncc1NC(=O)c1cnn2c1C(=O)N(c1ccc(Cl)c(Cl)c1)C[C@@H]2C
1.1e-09

// IC50 lookup, key: Cc1cc(CNC(=O)c2cnn3c2C(=O)N(c2ccc(C(F)(F)F)cc2)C[C@@H]3C)ccn1
1.17e-07

Sample C[C@H]1CN(c2ccc(C(F)(F)F)cc2)C(=O)c2c(C(=O)Nc3cccc(S(C)(=O)=O)c3)cnn21 — what was its IC50?
1.7e-09

Query (molecule): C[C@H]1CN(c2ccc(C(F)(F)F)cc2)C(=O)c2c(C(=O)Nc3ccc(F)cn3)cnn21 ; field requested: IC50
8.13e-09

====

Listing of recorded ED50 by entry.
Test system: rats
test protocol: Reversal of the effect of the mGluR2 PAM JNJ-42153605-induced inhibition of scopolamine-induced hyperlocomotion
Type: in vivo, rat
measurement conditions: Rattus norvegicus; rats, route PO, criterion total distance >1500 cm; read-out: ED50 SCOP JNJ-42153605 (Reversal of the effect of JNJ 42153605 on scopolamine-induced hyperlocomotion)
Procedure: 2) Reversal of the Effect of the mGluR2 PAM JNJ-42153605-Induced Inhibition of Scopolamine-Induced Hyperlocomotion Motor activity was measured in microprocessor-based motor activity arenas (closed gray PVC cylinders with a height of 39 cm and a diameter of 31 cm). […]
# value in mg/kg; strip the unit string

The cases that follow already have their ED50 on record.
>  <compound>
C[C@H]1CN(c2ccc(C(F)(F)F)c(Cl)c2)C(=O)c2c(C(=O)Nc3cccnc3)cnn21 [compound 47]

>  <unit name>
mg/kg

>  <observed measurement>
0.5

$$$$
>  <compound>
C[C@H]1CN(c2ccc(C(F)(F)F)cc2)C(=O)c2c(C(=O)Nc3ccncc3)cnn21 [compound 3]

>  <unit name>
mg/kg

>  <observed measurement>
0.08

$$$$

# get_value(readout='ED50', item= Cc1cc(N2C[C@H](C)n3ncc(C(=O)Nc4cccnc4)c3C2=O)ccc1C(F)(F)F [compound 36] )
0.2

Could you share which ED50 value was measured for Cc1cc(NC(=O)c2cnn3c2C(=O)N(c2ccc(C(F)(F)F)c(C)c2)C[C@@H]3C)ccn1 [compound 86] ?
1.26

Give the measured ED50 of Cc1cc(N2C[C@H](C)n3ncc(C(=O)Nc4cnccn4)c3C2=O)ccc1C(F)(F)F [compound 112] .
0.2

Returns the measured ED50 for the input compound. Input: Cc1c(F)cncc1NC(=O)c1cnn2c1C(=O)N(c1ccc(C(F)(F)F)cc1)C[C@@H]2C [compound 124]
0.2

Return reported ED50; argument: C[C@H]1CN(c2ccc(C(F)(F)F)cc2)C(=O)c2c(C(=O)Nc3ccccn3)cnn21 [compound 9]
0.32

Name the recorded ED50 for C[C@H]1CN(c2ccc(Cl)cc2)C(=O)c2c(C(=O)Nc3cnccn3)cnn21 [compound 162] .
0.13
